Test system: OVCAR-4 ovarian
experiment: NCI tumour cell line growth inhibition, 48 h
Where a SMILES comes first, the peptide text is derived from it. Bridges are numbered along the chain shown (N, C = ends). Roman numbers before positions name the chains, in order. [ ]: non-standard residue; d: D form. The star is where a group is joined. Heptadecanoyl = CCCCCCCCCCCCCCCCC(=O)*; Phg = N[CH](C(=O)O)c1ccccc1
endpoint-name: GI50

{"compound": "COc1cc2c(cc1C)NC(=O)/C2=C/c1c(C)nc2sc(C)cn12", "experimental-target": "OVCAR-4 ovarian", "GI50": "> 100 µM"}
{"compound": "COc1cc2c3c(n(CCCN4CCOCC4)c(=O)c2cc1OC)-c1cc2c(cc1C3=O)OCO2", "experimental-target": "OVCAR-4 ovarian", "GI50": "51 µM"}
{"compound": "O=C(O)c1cn(C2CC2)c2cc(N3CCN(C(=O)Nc4nc(-c5ccc(Cl)cc5)cs4)CC3)c(F)cc2c1=O", "experimental-target": "OVCAR-4 ovarian", "GI50": "3.61 µM"}
{"compound": "COc1ccc2c(c1)c(=O)oc1cc(OC/C(=N\\O)c3ccc(F)cc3)ccc12", "experimental-target": "OVCAR-4 ovarian", "GI50": "18.5 µM"}
{"compound": "O=C(Nc1cccc(-n2cc(-c3ccncc3)c(-c3ccc(O)c(Cl)c3)n2)c1)Nc1ccc(Cl)c(C(F)(F)F)c1", "experimental-target": "OVCAR-4 ovarian", "GI50": "2.77 µM"}
{"compound": "N=c1c2c(=O)n3c(nc2nc2sc4ccc(Cl)cc4n12)-c1ccccc1Sc1ccccc1-3", "experimental-target": "OVCAR-4 ovarian", "GI50": "3.5 µM"}

Alright, here's another compound for you.
Item under review: CCCCCCCCCCCCCCCCC(=O)N1CCCC1C(=O)NCC(=O)NC(C(=O)N1CCCC1C(=O)NC(CO)C(=O)NC(Cc1ccc(O)cc1)C(=O)NC(CCCCNC(=O)C1CCCN1C(=O)C(CCCCN)NC(=O)C(CCCCN)NC(=O)C(CCCCN)NC(=O)C(CCCNC(=N)N)NC(=O)C(CCCCN)NC(=O)C(N)C(C)C)C(=O)NC(CC(C)C)C(=O)NC(CCCNC(=N)N)C(=O)N1CCCC1C(=O)NCC(N)=O)c1ccccc1 (configuration not stated) (I: Heptadecanoyl-PG[Phg]PSYKLRPG-NH2 / II: H-VKRKKKP; amide I:7-II:C; configuration not given here) . Reported GI50?
46.9 µM

Hey, just so you know, these numbers are from PubChem BioAssay (NCI).
